- PROTOCOL SUMMARY: solvent given as SMILES
- CONDITION DETAILS: in CCO
Assign absorption maximum to each entry below.
Only the number, expressed in nm, is required.

Prompt line: GET /values?readout=absorption maximum&item= "Nc1cc2nc3cc(Br)c(Br)cc3nc2cc1N"
Response line: 442

Prompt line: Next entry: "CCCCN1C(=O)C(=C/C=C/C=C2N(CCCC)c3ccccc3N2CCCC)C(=O)N(CCCC)C1=S"
Response line: 452

Prompt line: Next entry: "COc1ccc([C@@H]2C[C@](O)(c3ccccn3)C[C@](O)(c3ccccn3)[C@H]2C(=O)c2ccc(N(c3ccccc3)c3ccccc3)cc2)cc1"
Response line: 366

Prompt line: Next entry: "c1ccc(-c2cc(-c3ccc4ccc5cccc6ccc3c4c56)ccn2)nc1"
Response line: 342.99

Prompt line: Next entry: "COc1ccc(OC)c(C=O)c1"
Response line: 352

Prompt line: Next entry: "COc1cccc(-n2c(-c3ccc(F)cc3)nc(C)c2C)c1"
Response line: 290

Prompt line: Next entry: CC/[NH+]=c1\cc2oc3cc(NCCC(=O)NC(C)C(=O)OC)c4ccccc4c3nc-2cc1C (stereo unspecified)
Response line: 590

Prompt line: Next entry: "O=C1c2ccccc2C2=Cc3ccc4ccccc4[n+]3[B-](F)(F)N12"
Response line: 450

Prompt line: Next entry: "Cc1ccc(C(=O)/C=C/c2ccc(N(C)C)cc2)cc1"
Response line: 422

Prompt line: Next entry: "CCCCCCCCCCn1cc(C2=C(c3cn(CCCCCCCCCC)c4ccccc34)C(=O)N(C)C2=O)c2ccccc21"
Response line: 480

Prompt line: Next entry: "CC1=C(Cc2ccccc2)C(C)=[N+]2C1=C(C)c1c(C)c(-c3csc(N4CCOCC4)n3)c(C)n1[B-]2(F)F"
Response line: 516

Prompt line: Next entry: "CC1=[N+]2C(=C(c3ccc(-c4c5ccccc5c(-c5ccccc5)c5ccccc45)cc3)c3ccc(C)n3[B-]2(F)F)C=C1"
Response line: 511

Prompt line: Next entry: CC(C)(C)OC(=O)NC(Cc1ccccc1)C(=O)OCc1ccc2c3cccc4cccc(c5cccc1c52)c43 (stereo unspecified)
Response line: 440

Prompt line: Next entry: "c1ccc(-c2oc(-c3ccccc3)c3ccccc23)cc1"
Response line: 411

Prompt line: Next entry: "CCOC(=O)/C=C/c1cc2ccc(-c3cn(Cc4ccccc4)nn3)cc2oc1=O"
Response line: 358

Prompt line: Next entry: "CC(=O)c1c2c(cc3ccc(N(C)C)cc13)CCC2"
Response line: 377

Prompt line: Next entry: "CCOC(=O)c1cc(C(=O)OCC)c2ccccc2n1"
Response line: 319

Prompt line: Next entry: "c1ccc(-c2cc(-c3ccc(-c4nc(-c5ccccn5)c(-c5ccccn5)[nH]4)cc3)cc(-c3ccccn3)n2)nc1"
Response line: 326

Prompt line: Next entry: "O=C1c2ccccc2C2=Cc3cccc[n+]3[B-](F)(F)N12"
Response line: 391

Prompt line: Next entry: "CN(C)CCN(Cc1c2ccccc2c(CN(CCN(C)C)c2ccc([N+](=O)[O-])cc2[N+](=O)[O-])c2ccccc12)c1ccc([N+](=O)[O-])cc1[N+](=O)[O-]"
Response line: 341

Prompt line: Next entry: "COc1ccc2cc(-c3ccc(C)cc3)c(=O)oc2c1"
Response line: 342

Prompt line: Next entry: "CC(C)(C)NC1=C2C=CC=[N+]2[B-](F)(F)n2cccc21"
Response line: 412.5

Prompt line: Next entry: CC/[NH+]=c1\cc2oc3cc(NCCNC(=O)C(NC(=O)OC(C)(C)C)C(C)C)c4ccccc4c3nc-2cc1C (stereo unspecified)
Response line: 590

Prompt line: Next entry: "CCCCN1C(=O)c2cccc3c([O-])c(/C=C/c4sc5ccccc5[n+]4CC)cc(c23)C1=O"
Response line: 555.68

Prompt line: Next entry: "CN(C)c1ccc(/C=C/c2nc3ccccc3s2)cc1"
Response line: 396

Prompt line: Next entry: "Oc1ccc(-c2cccs2)cc1-c1nc2ccccc2s1"
Response line: 360

Prompt line: Next entry: "COc1ccc2c(-c3nc(-c4ccccc4F)no3)cc(=O)oc2c1"
Response line: 333

Prompt line: Next entry: CCOC(=O)C1=C(C)NC2=C(C(=O)c3ccccc32)C1c1ccc(N(C)C)cc1 (stereo unspecified)
Response line: 395

Prompt line: Next entry: "CCN(CC)c1ccc2c(c1)OC1=C(/C=C/C3=[N+](C)c4ccccc4C3(C)C)CCCC1=C2c1ccccc1C(=O)O"
Response line: 700

Prompt line: Next entry: "Cc1cc2c(o1)c(C)cc1ccc(=O)oc12"
Response line: 305

Prompt line: Next entry: "CCOC(=O)/C(C#N)=C\c1cn(-c2ccccc2)nc1-c1ccccc1"
Response line: 347

Prompt line: Next entry: "COc1ccc(-n2nc(C#N)c(NC3CCCCC3)n2)cc1"
Response line: 333

Prompt line: Next entry: "Cc1ccc(C2=C3C=C(I)C(I)=[N+]3[B-](F)(F)n3c2cc(I)c3I)cc1"
Response line: 577

Prompt line: Next entry: "O=Cc1cc(O)ccc1O"
Response line: 367

Prompt line: Next entry: "c1cnc(-c2c3ccccc3c(-c3cncnc3)c3ccccc23)nc1"
Response line: 391

Prompt line: Next entry: "CN(C)c1cc(C#N)c(N(C)C)c(C#N)c1"
Response line: 391.7

Prompt line: Next entry: Cc1ccc(C2CC(c3ccc(O)cc3)=NN2c2ccc(S(N)(=O)=O)cc2)cc1 (stereo unspecified)
Response line: 358

Prompt line: Next entry: "CN(C)c1cc(-c2ccc(C#Cc3ccncc3)cc2)cc2ccccc12"
Response line: 309.39

Prompt line: Next entry: "CN(C)/C=N\c1ccc2c3c(cccc13)C(=O)c1ccccc1-2"
Response line: 471

Prompt line: Next entry: "CC1(C)c2ccccc2N(c2ccc(-c3nnc(-c4ccccc4O)o3)cc2)c2ccccc21"
Response line: 361

Prompt line: Next entry: "CC(C)=N[O-]"
Response line: 265

====

- PROTOCOL SUMMARY: solvent given as SMILES
- CONDITION DETAILS: in CC#N
METRIC: absorption maximum (nm)
Only the number, expressed in nm, is required.

Prompt line: GET /values?readout=absorption maximum&item= "COc1ccc(C#Cc2ccc3ccc(=O)oc3c2)cc1"
Response line: 308

Prompt line: Next entry: "c1ccc(C[n+]2cc3ccc4c[n+](Cc5ccccc5)cc5ccc(c2)c3c45)cc1"
Response line: 421

Prompt line: Next entry: "Cc1cc(C)c(B(c2c(C)cc(C)cc2C)c2cc3cc(N(C)C)c4ccccc4c3c3c2ccc2ccccc23)c(C)c1"
Response line: 429

Prompt line: Next entry: "CN(C)c1ccc(C#Cc2ccc(-c3nc(C#N)c(C#N)n3C)cc2)cc1"
Response line: 357

Prompt line: Next entry: "Fc1ccc(/C=C/c2nc3c4ccccc4c4ccccc4c3o2)cc1"
Response line: 363

Prompt line: Next entry: "CN(C)c1ccc(C#Cc2ccc3c(N(C)C)cc(-c4ccccc4)cc3c2)cc1"
Response line: 342.13

Prompt line: Next entry: "COc1ccc(C#Cc2ccc(C#N)cc2)cc1OC"
Response line: 325

Prompt line: Next entry: COC(=O)C(Cc1ccc2oc(-c3ccc(-n4c5ccccc5c5ccccc54)cc3)nc2c1)NC(=O)OC(C)(C)C (stereo not given)
Response line: 340

Prompt line: Next entry: "CN(C)c1ccc2nc(-c3ccc(C(=O)OC(C)(C)C)cc3)sc2c1"
Response line: 390

Prompt line: Next entry: "CN(C)c1ccc2nc(-c3ccc(C(=O)Nc4ccccc4)cc3)sc2c1"
Response line: 388

====

Assign absorption maximum to each entry below.
- PROTOCOL SUMMARY: solvent given as SMILES
- CONDITION DETAILS: in CCCCCO
Only the number, expressed in nm, is required.

Prompt line: GET /values?readout=absorption maximum&item= COC(=O)C(Cc1ccc2oc(-c3ccc(-n4c5ccccc5c5ccccc54)cc3)nc2c1)NC(=O)OC(C)(C)C (centres undefined)
Response line: 340.8

Prompt line: Next entry: "CCc1ccc(/C=C/c2ccc(-c3nnc(-c4ccc(-c5cc6ccccc6s5)cc4)o3)cc2)cc1"
Response line: 354

Prompt line: Next entry: "Cc1ccccc1C(=O)NN1C2=C(CC3=C1CC(C)(C)CC3=O)C(=O)CC(C)(C)C2"
Response line: 378

Prompt line: Next entry: "CN1CCN(c2ccc3c4c(cccc24)C(=O)c2ccccc2-3)CC1"
Response line: 456.4

Prompt line: Next entry: "COC(=O)c1c2ccccc2nc2ccccc12"
Response line: 361

Prompt line: Next entry: "CN(C)c1ccc(/C=C/c2ccc(-c3nnc(-c4ccc(-c5cc6ccccc6s5)cc4)o3)cc2)cc1"
Response line: 341

Prompt line: Next entry: "O=C1c2ccccc2-c2ccc(N3CCN(c4ccccc4)CC3)c3cccc1c23"
Response line: 446

Prompt line: Next entry: "Cc1cc(C2(c3cc(C)c(O)c(Br)c3)OS(=O)(=O)c3ccccc32)cc(Br)c1O"
Response line: 417

Prompt line: Next entry: "O=C1CCCC2=C1CC1=C(CCCC1=O)N2NC(=O)c1ccccc1"
Response line: 376
